System: B16F10 (malignant melanoma)
EXPERIMENT DESCRIPTION: Antiproliferative activity (CCK-8 cell viability), B16F10
Assay type: cell-based
CONDITION DESCRIPTION: Mus musculus, B16-F10, Compound concentration: 10 μM, 72 h, read-out: Antiproliferative activity in cancerous cells, B16F10 (inhibition of cell growth)
Here the recorded inhibition at 10 µM is given for each entry.
MEASURED PARAMETER: inhibition at 10 µM

| INPUT SMILES | VALUE OBSERVED |
| --- | --- |
| CC1=C(CC(=O)O)c2c(F)cccc2/C1=C\c1cccc(COc2ccccc2)c1 | ≥ 50% |
| CCc1ccc2c(c1)C(CC(=O)O)=C(C)/C2=C/c1ccc(COc2ccc(F)c(F)c2)cc1 | ≥ 50% |
| CC1=C(CC(=O)O)c2cc(F)ccc2/C1=C\c1cccc(Oc2ccc(F)c(F)c2)c1 | ≥ 50% |
| CC1=C(CC(=O)O)c2cc(F)ccc2/C1=C\c1ccc(CCOc2ccc(F)cc2)cc1 | ≥ 50% |
| CC1=C(CC(=O)O)c2cc(F)ccc2/C1=C\c1ccc(CSc2nc3ccccc3[nH]2)cc1 | ≥ 50% |
| CC1=C(CC(=O)O)c2cc(F)ccc2/C1=C\c1cccc(C(=O)Nc2ccc(F)cc2)c1 | ≥ 50% |
| CC1=C(CC(=O)O)c2cc(F)ccc2/C1=C\c1ccc(OCCc2ccccc2)cc1 | < 30% |
| CC1=C(CC(=O)O)c2c(Cl)cc(Cl)cc2/C1=C/c1ccc(Oc2ccc(F)cc2)cc1 | ≥ 50% |
| COc1ccc2c(c1)C(CC(=O)O)=C(C)/C2=C/c1ccc(COc2ccc(F)cc2)cc1 | ≥ 50% |
| CC1=C(Cc2noc(=O)[nH]2)c2cc(F)ccc2/C1=C\c1cccc(Oc2ccccc2)c1 | 30 to 50% |
| COc1ccc2c(c1)/C(=C\c1ccc(OCc3ccccc3)cc1)C=C2CC(=O)O | < 30% |
| COc1ccc(S(=O)(=O)Cc2ccc(/C=C3/C(C)=C(CC(=O)O)c4cc(F)ccc43)cc2)cc1 | ≥ 50% |
| CC1=C(CC(=O)O)c2cc(Cl)ccc2/C1=C\c1ccc(Oc2ccc(F)c(F)c2)cc1 | ≥ 50% |
| CC1=C(CC(=O)O)c2cc(F)ccc2/C1=C\c1ccc(OC2CCN(C(=O)OC(C)(C)C)CC2)cc1 | ≥ 50% |
| CC1=C(CC(=O)O)c2cc(C)ccc2/C1=C\c1ccc(COCc2ccc(F)cc2)cc1 | ≥ 50% |
| O=C(O)CC1=C(Cc2ccc(Oc3ccc(F)cc3)cc2)/C(=C/c2ccc(CN3CCOCC3)cc2)c2ccc(F)cc21 | < 30% |
| CC(=O)CC(=O)N1CCC(Oc2ccc(/C=C3/C(C)=C(CC(=O)O)c4cc(F)ccc43)cc2)CC1 | ≥ 50% |

The values you see were collected from patent US20260184663A1.
